Sourced from ChEMBL document CHEMBL5357066

Provide the recorded MIC for the entries that follow.
# Tested on: Staphylococcus aureus
# protocolDescription: Antibacterial activity against methicillin sensitive Staphylococcus aureus 1199B assessed as bacterial growth inhibition incubated for overnight by microbroth dilution method
# Format: functional
Write the value in µg/mL as a bare number.

# value of MIC, Staphylococcus aureus, item CCCCCCCCCCCCCCCCCCNC(=N)NCCCCN = 4

# value of MIC, Staphylococcus aureus, item CCCCC/C=C\C/C=C\CCCCCCCCNC(=N)NCCCCCCCCNC(=N)N = 2

# value of MIC, Staphylococcus aureus, item CCCCCCCC/C=C\CCCCCCCCNC(=N)NCCCCCCCCNC(=N)N = 4

# value of MIC, Staphylococcus aureus, item CCCCCCCCCCCCCCCCNC(=N)NCCCCN = 4

---

# Test system: Staphylococcus aureus
# protocolDescription: Antibacterial activity against methicillin resistant Staphylococcus aureus USA 300 assessed as bacterial growth inhibition incubated for overnight by microbroth dilution method
# Assay type: functional
quantityName: MIC (µg/mL)
Write the value in µg/mL as a bare number.

Just so you know, measured MIC for CCCCCCCCCCCCNC(=N)NCCCCN came out at 4

Just so you know, measured MIC for CCCCCCCC/C=C\CCCCCCCCNC(=N)NCCCCCCCCNC(=N)N came out at 2

Just so you know, measured MIC for CCCCCCCC/C=C\CCCCCCCCNC(=N)NCCCCNC(=N)N came out at 2

Just so you know, measured MIC for CCCCCCCC/C=C\CCCCCCCCNC(=N)NCCCCN came out at 2

Just so you know, measured MIC for NCCCCCCCCN=C(N)N came out at 128

---

# System: Pseudomonas aeruginosa
# protocolDescription: Synergistic antibacterial activity against Pseudomonas aeruginosa PAO1 assessed as bacterial growth inhibition incubated for overnight in presence of […] by microbroth dilution method relative to control
# Format: functional
quantityName: inhibition (INH)

Just so you know, measured inhibition (INH) for CCCCCCCCCCCCNC(=N)NCCCCN came out at <20%

Just so you know, measured inhibition (INH) for CCCCC/C=C\C/C=C\CCCCCCCCNC(=N)NCCCCCCCCNC(=N)N came out at <20%

Just so you know, measured inhibition (INH) for CCCCCCCCCCCCCCCCCCNC(=N)NCCCCN came out at <20%

Just so you know, measured inhibition (INH) for CCCCCCCC/C=C\CCCCCCCCNC(=N)NCCCCNC(=N)N came out at <20%

Just so you know, measured inhibition (INH) for CCCCCCCCCCNC(=N)NCCCCN came out at <20%

Just so you know, measured inhibition (INH) for CCCCC/C=C\C/C=C\CCCCCCCCNC(=N)NCCCCCCCCN came out at <20%

Just so you know, measured inhibition (INH) for CCCCCCCC/C=C\CCCCCCCCNC(=N)NCCCCN came out at <20%

---

# System: Staphylococcus aureus
# protocolDescription: Antibacterial activity against methicillin sensitive Staphylococcus aureus 1199B assessed as bacterial growth inhibition incubated for overnight by microbroth dilution method
# Format: functional
Criterion: MIC strictly under 4 µg/mL. Met: t. Not met: f.

Data request: Say whether its MIC is strictly beneath 4 µg/mL. Entry: CCCCCCCC/C=C\CCCCCCCCNC(=N)NCCCCNC(=N)N
Data returned: t

Data request: Say whether its MIC is strictly beneath 4 µg/mL. Entry: CC/C=C\C/C=C\C/C=C\CCCCCCCCNC(=N)NCCCCN
Data returned: f

Data request: Say whether its MIC is strictly beneath 4 µg/mL. Entry: CCCCCCCC/C=C\CCCCCCCCNC(=N)NCCCCCCCCNC(=N)NCCCCCCCC/C=C\CCCCCCCC
Data returned: f

Data request: Say whether its MIC is strictly beneath 4 µg/mL. Entry: N=C(N)NCCCCCCCCNC(=N)N
Data returned: f

Data request: Say whether its MIC is strictly beneath 4 µg/mL. Entry: CCCCCCCCCCNC(=N)NCCCCN
Data returned: f

Data request: Say whether its MIC is strictly beneath 4 µg/mL. Entry: CCCCC/C=C\C/C=C\CCCCCCCCNC(=N)NCCCCN
Data returned: f

---

# Test system: Escherichia coli
# protocolDescription: Synergistic antibacterial activity against Escherichia coli NCTC 12923 assessed as rifampicin MIC at <=0.25 times MIC incubated for overnight by microbroth dilution checkerboard assay
# Format: functional
Provide the recorded MIC for the entries that follow.
Write the value in µg/mL as a bare number.

Just so you know, measured MIC for CCCCCCCCCCCC(=O)NCCCC came out at 32

Just so you know, measured MIC for CCCCCCCCCCNC(=N)NCCCC(=O)O came out at 32

Just so you know, measured MIC for CCCCCCCCCCCCCCCCCCNC(=O)NCCCCN came out at 16

Just so you know, measured MIC for CCCCCCCC/C=C\CCCCCCCCNC(=N)NCCCCCCCCCC came out at 32

Just so you know, measured MIC for CCCCC/C=C\C/C=C\CCCCCCCCNC(=N)NCCCCNC(=N)N came out at 4

Just so you know, measured MIC for CC/C=C\C/C=C\C/C=C\CCCCCCCCNC(=N)NCCCCN came out at 1

Just so you know, measured MIC for CCCCCCCCCCCC(=O)NCCCCN came out at 32

Just so you know, measured MIC for NCCCCCCCCN=C(N)N came out at 16

Just so you know, measured MIC for CCCCCCCC/C=C\CCCCCCCCNC(=N)NCCCCN came out at 8

Just so you know, measured MIC for CCCCCCCCCCNC(=N)NCCCCCCCCCC came out at 8

Just so you know, measured MIC for N=C(N)NCCCCCCCCNC(=N)N came out at 8

Just so you know, measured MIC for CCCCCCCC/C=C\CCCCCCCCNC(=N)NCCCCNC(=N)N came out at 8

---

Provide the recorded MIC for the entries that follow.
# System: Acinetobacter baumannii
# protocolDescription: Antibacterial activity against Acinetobacter baumannii ATCC 17978 assessed as bacterial growth inhibition incubated for overnight by microbroth dilution method
# Type: functional
Write the value in mg/L as a bare number.

Just so you know, measured MIC for CCCCCCCC/C=C\CCCCCCCCNC(=N)NCCCCN came out at 8

Just so you know, measured MIC for CCCCC/C=C\C/C=C\CCCCCCCCNC(=N)NCCCCN came out at 8

Just so you know, measured MIC for CCCCCCCC/C=C\CCCCCCCCNC(=N)NCCCCCCCCN came out at 8

Just so you know, measured MIC for CCCCCCCC/C=C\CCCCCCCCNC(=N)NCCCCCCCCNC(=N)NCCCCCCCC/C=C\CCCCCCCC came out at 128

Just so you know, measured MIC for CCCCCCCC/C=C\CCCCCCCCNC(=N)NCCN(CCN)CCN came out at 64

Just so you know, measured MIC for CCCCC/C=C\C/C=C\CCCCCCCCNC(=N)NCCCCCCCCNC(=N)N came out at 4

Just so you know, measured MIC for CO[C@H]1/C=C/O[C@@]2(C)Oc3c(C)c(O)c4c(O)c(c(/C=N/N5CCN(C)CC5)c(O)c4c3C2=O)NC(=O)/C(C)=C\C=C\[C@H](C)[C@H](O)[C@@H](C)[C@@H](O)[C@@H](C)[C@H](OC(C)=O)[C@@H]1C [RIFAMPIN] came out at 4

Just so you know, measured MIC for CCCCCCCCCCCCNC(=N)NCCCCN came out at 128

Just so you know, measured MIC for CCCCCCCC/C=C\CCCCCCCCNC(=N)NCCCCNC(=N)N came out at 8

Just so you know, measured MIC for CCCCC/C=C\C/C=C\CCCCCCCCNC(=N)NCCCCNC(=N)N came out at 32

Just so you know, measured MIC for CC/C=C\C/C=C\C/C=C\CCCCCCCCNC(=N)NCCCCN came out at 128

Just so you know, measured MIC for CCCCCCCC/C=C\CCCCCCCCNC(=N)NCCCCCCCCNC(=N)N came out at 16

Just so you know, measured MIC for CCCCCCCCCCNC(=N)NCCCCCCCCCC came out at 32

Just so you know, measured MIC for CCCCCCCCCCNC(=N)NCCCC came out at 16

---

# Tested on: Escherichia coli
# protocolDescription: Synergistic antibacterial activity against Escherichia coli NCTC 12923 assessed as rifampicin MIC at <=0.25 times MIC incubated for overnight by microbroth dilution checkerboard assay
# Assay type: functional
Provide the recorded MIC for the entries that follow.

Just so you know, measured MIC for CCCCCCCCCCNC(=N)NCCCC came out at ≤ 0.125 µg/mL

Just so you know, measured MIC for CCCCCCCCCCNC(=N)NCCCCN(C)C came out at ≤ 0.125 µg/mL

Just so you know, measured MIC for CCCCCCCCCCCCNC(=N)NCCCCN came out at ≤ 0.125 µg/mL

Just so you know, measured MIC for CCCCC/C=C\C/C=C\CCCCCCCCNC(=N)NCCCCCCCCNC(=N)N came out at 8 µg/mL

Just so you know, measured MIC for CCCCCCCC/C=C\CCCCCCCC(=O)NCCCCN came out at 32 µg/mL

Just so you know, measured MIC for CCCCCCCCCCNC(=N)NCCCCN came out at ≤ 0.125 µg/mL

Just so you know, measured MIC for CCCCCCCCCCNC(=N)NCCCCNC(=N)N came out at ≤ 0.125 µg/mL

Just so you know, measured MIC for CCCCC/C=C\C/C=C\CCCCCCCCNC(=N)NCCCCCCCCN came out at 8 µg/mL

Just so you know, measured MIC for CCCCC/C=C\C/C=C\CCCCCCCCNC(=N)NCCCCN came out at 8 µg/mL

Just so you know, measured MIC for NCCCCN=C(N)N came out at 32 µg/mL

Just so you know, measured MIC for CCCCCCCCCCCCCCCCCCNC(=N)NCCCCN came out at 4 µg/mL
